molecular target: T1, recombinant human ILT4 (LILRB2) (human, UniProt Q8N423 22-460); experiment: SPR, Biacore T200, mAb captured on anti-Fc, ILT4 injected, medium resolution, 25 C
T1 construct: Bought protein (Acro Biosystems or R&D Systems); also called ILTR4
T1 sequence (Q8N423 other isoform, or with tags, fused parts or gaps limits assumed): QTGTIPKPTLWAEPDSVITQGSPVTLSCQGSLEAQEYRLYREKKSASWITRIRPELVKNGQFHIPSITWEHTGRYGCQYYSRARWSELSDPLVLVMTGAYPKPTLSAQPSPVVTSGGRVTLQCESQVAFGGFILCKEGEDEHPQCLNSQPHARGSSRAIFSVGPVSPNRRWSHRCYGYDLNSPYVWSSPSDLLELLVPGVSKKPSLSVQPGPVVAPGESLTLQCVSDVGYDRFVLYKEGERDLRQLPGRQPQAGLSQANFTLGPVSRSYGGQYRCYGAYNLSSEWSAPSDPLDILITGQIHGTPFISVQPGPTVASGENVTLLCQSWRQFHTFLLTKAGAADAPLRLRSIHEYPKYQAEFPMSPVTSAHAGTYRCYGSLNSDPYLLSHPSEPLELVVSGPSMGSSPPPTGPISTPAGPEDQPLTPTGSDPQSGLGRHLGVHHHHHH
readout.type: kon (M⁻¹ s⁻¹)
Kindly answer with a numeric value in M⁻¹ s⁻¹, unit omitted.

Some solved cases for reference:
binder: L180S4 (antibody, IgG1, V domains shown, also called Murine 180; mouse anti-human ILT4 antibody L180S4) VH: EVHLQQSGPELVKPGASVKISCKASGYSFIGYFMNWMKQSHGKSLEWIGRINPYNGDIFYNQKFKGKATLTVDKSSTTAHMDLLSLTSEDFAVYYCARGITVAAGSFDVWGTGTTVTVSS VL: DIVLTQSPASLAVSLGQRATISCRASESVDNYGNTFMHWYQQKPGQPPKLLIYRASNLESGIPARFSGSGSKTDFTLTINPVEADDVATYYCQQSSDHPLTFGAGTKLELS
unit: M⁻¹ s⁻¹
kon: 431000

binder: Chimeric 77 (antibody, V domains shown, Chimeric form of L77S2) VH: DVQLQQSGPELVKPGNSVKISCKAAGYSFTGYSVNWVKERHGKSLEWIGRINPYNGDIFNNQKFKGKATLTVDKSSSTAHMELRSLTSEDSAVYYCARGTTVGGAWFAYWGQGTLVTVSA VL: VIVLTQSPASLAVSLGQRAAISCRASESVDSYGYSFLHWYQQKPGQPPKLLIYLASNLESGIPARFSGSGSGTDFTLTINPVEADDVATYYCQQSNEDLMYTFGGGTKLEIK
unit: M⁻¹ s⁻¹
kon: 728000

Let us move to another entry and its kon.
Reported kon of Chimeric 45 (antibody, V domains shown, Chimeric form of L45S4, captured on anti-human Fc) VH: EVQLQQSGPELVKPGASVKISCKASGYTFTDYYMNWVKQSHGKSLEWIGDINPNNGGTSYNQKFKGKATLTVDKSSSTAYMELRSLTSEDSAVYYCARGGAELTGTYWYFDVWGTGTTVTVSS VL: DIQMTQSPASLSISVGETVTITCRASENIYSNLAWYQQKQGKSPQVLVYGATNLADGVPSRFSGSGSGTQYSLKIKSLQSEDFGSYYCQHFWDSPFTFGSGTKLEIK : 489000
